# Test system: HT-1197 cells
# ASSAY_PROTOCOL: Cell-based assay: anti-proliferative activity, Cell Counting Kit-8, 72 hours (HT-1197, negative control without MELK expression)
# MEASUREMENT_CONDITIONS: Homo sapiens, HT1197, 72 h, HT1197 cells (negative control), 72 hours
Structures can show the parent of a compound that is named as a salt.
Please note: IC50 exactly at 2 µM is False. Only values below 2 µM get True.

MOLECULE	GROUP_LABEL
CCCC(=O)c1cnc2ccc(-c3cc(Cl)c(O)c(Cl)c3)cc2c1N[C@H]1CC[C@H](CN(C)C)CC1	True

Query: Identify whether the molecule CN[C@H]1CC[C@H](Nc2c(C(=O)C3CC3)cnc3ccc(-c4cc(Cl)c(O)c(Cl)c4)cc23)CC1 records IC50 below 2 µM.
Result: True

Query: Try the molecule NC1CCCN(c2ncc(Nc3c(C(=O)C4CC4)cnc4ccc(-c5cc(Cl)c(O)c(Cl)c5)cc34)cn2)C1 (centres unmarked)
Result: True

Query: Try the molecule COc1cc(-c2ccc3ncc(C(=O)C4CC4)c(Nc4ccc(N5CCNCC5)cn4)c3c2)cc(Cl)c1O [Example 528, hydrochloride]
Result: False

Query: Try the molecule CN1CCC(n2cc(Nc3c(C(=O)C4CC4)cnc4ccc(-c5cc(F)c(O)c(Cl)c5)cc34)cn2)CC1
Result: False

Query: Try the molecule CCC(=O)c1cnc2ccc(-c3cc(Cl)c(O)c(Cl)c3)cc2c1Nc1ccc(N2CCC[C@H](N)C2)nc1
Result: True

Query: Try the molecule O=C(c1cnc2ccc(-c3cc(F)c(O)c(Cl)c3)cc2c1N[C@H]1C[C@H]2CC[C@@H](C1)N2)C1CC1
Result: False

src = patent US9120749B2
